Test system: MS2 coat protein
Protocol Description: apparent KD of MS2 coat protein; designed switch direction (-1 OFF switch, 1 ON switch): 1; higher = weaker reporter binding
Test Parameters: Eterna round: R95; input ligand: FMN 200 uM
# label = yes if apparent KD of MS2 coat protein >= 70 nM else no

Below, 5 sequences whose answers are already recorded.
{"Sequence Input": "AAAGGACAUGAGGAUCACCCAUGUAGAAAAUACACAGGAUAUCGUCAUAUCGAAAUAUAAUGAGAAGGGUGCAAAA [Zaanininra] (puzzle: Same State 1)", "Classification": "yes"}
{"Sequence Input": "AAGUAACAUGAGGAUCACCCAUGUGAGGUGAGCGUAGGAUAUCGAGGAGGAAGGGUGGAGCGAGAAGGACGAGAAG [JR_SS1_Sub097] (puzzle: Same State 1)", "Classification": "yes"}
{"Sequence Input": "GAGUAGGAGUUACAGGAUAUAUGGAGGAGGACAUGAGGAUCACCCAUGUGAGAGAUGAGAGGAGGAUAGAAGGGUAAGGGAGUAA [JR_SS2_Sub028] (puzzle: Same State 2)", "Classification": "no"}
{"Sequence Input": "UUAAGCCACGGGCAGGAUAUGUAUUAAAGUACAUGAGGAUCACCCAUGUGCAGGUGUAACACCUGACAGAAGGGCCAAUCGCGGC [Soondi - 3] (puzzle: Same State 2)", "Classification": "no"}
{"Sequence Input": "CAGCGCUGUCGAGAGGAUAUGCGGUGAUGGACAUGAGGAUCACCCAUGUUAGCGACAGCAUCACGGCAGAAGGCUCUACCGCCUG [Soteed Omei mod 43] (puzzle: Same State 2)", "Classification": "no"}

Inquiry: Textbook exercise: given the entry AUGGUGCAGGUACAGGAUAUGUUGCUCGUAACAUGAGGAUCACCCAUGUACCUAUGAGAUUAAAUGCAGAAGGGUGCACACCAAA [Mat - Same State 2 - Mod of UCT - D90] (puzzle: Same State 2) , state whether its apparent KD of MS2 coat protein is greater than or equal to 70 nM.
Reply text: no

Inquiry: Textbook exercise: given the entry AUAAAACAUGAGGAUCACCCAUGUCUACAAAGUCGAGGAUAUGGGCAAAUAAUAUAAGAACCAGAAGGCGAAUAAU [SS1 Teenbexe 1] (puzzle: Same State 1) , state whether its apparent KD of MS2 coat protein is greater than or equal to 70 nM.
Reply text: no

Inquiry: Textbook exercise: given the entry AAGUAACAUGAGGAUCACCCAUGUGAGGUGAGCGUAGGAUAUCGAGAAGGAAGGGUGGAGCGAGAAGGACGAAGGA [JR_SS1_Sub0102] (puzzle: Same State 1) , state whether its apparent KD of MS2 coat protein is greater than or equal to 70 nM.
Reply text: yes

Inquiry: Textbook exercise: given the entry AGUCCAGCCUAAGCUGGACAAAAGCAUGUACAUGAGGAUCACCCAUGUCAUGUACAAGCUUUUUGCUCGUCUUAAAA [Mat - hsa-mir-208a - Mod of JL - D4] (puzzle: Sensor for hsa-mir-208a) , state whether its apparent KD of MS2 coat protein is greater than or equal to 70 nM.
Reply text: yes

Inquiry: Textbook exercise: given the entry UUAUAACAUGAGGAUCACCCAUGUCAUCUAAGUCGAGGAUAUGGGCAAAUAUAAUAAGAACCAGAAGGCGAAUAUU [Mat - Same State 1 - Mod of UCT - D33] (puzzle: Same State 1) , state whether its apparent KD of MS2 coat protein is greater than or equal to 70 nM.
Reply text: yes

Entry source: the supplement of paper PMC9170038
